# Target System: AP-4-A phosphorylase (Mycobacterium tuberculosis (strain ATCC 25618 / H37Rv))
# Sequence (P9WMK9 whole entry): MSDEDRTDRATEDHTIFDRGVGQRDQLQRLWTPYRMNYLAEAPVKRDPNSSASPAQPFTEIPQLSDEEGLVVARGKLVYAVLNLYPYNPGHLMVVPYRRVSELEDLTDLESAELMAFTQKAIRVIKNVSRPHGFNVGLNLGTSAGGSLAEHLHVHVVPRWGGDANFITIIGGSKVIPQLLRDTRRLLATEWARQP
# Assay Summary: FRET assay
# Setup Conditions: pH 8
pIC50: −log10 of the molar value.
If the reported pIC50 equals or exceeds 6, assign criterion met. If not, assign criterion not met.

// below: answered compounds
CS/C(Nc1cccc(C(F)(F)F)c1)=C(/C#N)S(=O)(=O)c1ccccc1    criterion met
CS/C(Nc1cccc(C#N)c1)=C(/C#N)S(=O)(=O)c1ccccc1    criterion not met
COc1cccc(N/C(SC)=C(\C#N)S(=O)(=O)c2ccccc2)c1    criterion not met
CS/C(Nc1cccc(C)c1)=C(/C#N)S(=O)(=O)c1ccccc1    criterion not met
COC(=O)c1cccc(N/C(SC)=C(\C#N)S(=O)(=O)c2ccccc2)c1    criterion not met
CS/C(Nc1ccccc1)=C(/C#N)S(=O)(=O)c1ccccc1    criterion not met
CS/C(Nc1cccc(C(C)C)c1)=C(/C#N)S(=O)(=O)c1ccccc1    criterion not met
CCc1cccc(N/C(SC)=C(\C#N)S(=O)(=O)c2ccccc2)c1    criterion met
CS/C(Nc1ccc(C(F)(F)F)cc1)=C(/C#N)S(=O)(=O)c1ccccc1    criterion not met
CS/C(Nc1cc(C)cc(C)c1)=C(/C#N)S(=O)(=O)c1ccccc1    criterion not met

Field: next compound
Check this compound for pIC50 at or above 6: CS/C(Nc1cccc(C(F)(F)F)c1)=C(/C#N)S(=O)(=O)c1ccc(Cl)cc1
criterion met
